Exercise: for every item that follows, state its recorded IC50.
- Tested on: SH-SY5Y
- Test Details: Cytotoxicity against human SH-SY5Y cells assessed as cell viability after 48 hrs by MTS reduction assay
- Assay type: functional, cell-based
# output: bare number, implied unit nM

The recorded IC50 for CC(C)[C@H](N)C(=O)OC[C@H](O)CNc1nc(NCc2ccc(-c3ccccn3)cc2)c2ncn(C(C)C)c2n1.Cl is 1100

The recorded IC50 for CC(C)n1cnc2c(NCc3ccc(-c4ccccn4)cc3)nc(N3C[C@H](O)C[C@H]3CO)nc21 is 480

The recorded IC50 for CC(C)n1cnc2c(NCc3ccc(-c4ccccn4)cc3)nc(NCC[C@H](O)CO)nc21 is 1400

The recorded IC50 for CC(C)n1cnc2c(NCc3ccc(-c4ccccn4)cc3)nc(N[C@@H]3CCC[C@H](O)[C@@H]3O)nc21 is 910

The recorded IC50 for CC(C)n1cnc2c(NCc3ccc(-c4ccccn4)cc3)nc(NC[C@@H](O)CO)nc21 is 520
